Source of measurements: the supplement of paper PMC8728848

# Target of assay: Fuc(a1-3)[Gal(b1-4)]GlcNAc6S
# Experimental protocol: glycan array binding signal (z-score within array); higher = stronger binding
# Test parameters: glycan notation: IUPAC condensed, linker removed
Many of the other results were omitted from the sample, so the strongest signals are more common in it than they were.
Readout: glycan array binding signal (z-score)

Binder	glycan array binding signal (z-score)
ArathEULS3 TAP (Arabidopsis thaliana) (protein) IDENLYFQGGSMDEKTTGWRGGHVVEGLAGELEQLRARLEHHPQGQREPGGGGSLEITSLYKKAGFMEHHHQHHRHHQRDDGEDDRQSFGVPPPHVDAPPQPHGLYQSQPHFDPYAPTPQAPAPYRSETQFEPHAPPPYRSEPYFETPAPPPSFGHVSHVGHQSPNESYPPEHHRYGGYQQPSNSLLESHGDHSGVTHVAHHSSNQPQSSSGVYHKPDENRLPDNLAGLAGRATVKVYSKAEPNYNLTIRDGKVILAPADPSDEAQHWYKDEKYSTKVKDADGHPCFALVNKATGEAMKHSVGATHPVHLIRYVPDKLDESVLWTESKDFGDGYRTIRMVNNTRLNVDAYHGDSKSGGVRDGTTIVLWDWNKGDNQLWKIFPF	2.6
OS9 (Arabidopsis thaliana) (protein) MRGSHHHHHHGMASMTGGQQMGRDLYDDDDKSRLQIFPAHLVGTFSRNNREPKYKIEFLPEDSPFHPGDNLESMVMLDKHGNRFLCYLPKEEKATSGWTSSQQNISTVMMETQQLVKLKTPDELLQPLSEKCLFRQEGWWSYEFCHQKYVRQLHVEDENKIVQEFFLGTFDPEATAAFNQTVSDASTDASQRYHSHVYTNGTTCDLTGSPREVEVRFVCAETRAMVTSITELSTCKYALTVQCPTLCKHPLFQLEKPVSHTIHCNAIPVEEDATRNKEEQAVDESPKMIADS	3.45
CFEM-SCL (Saccharomyces cerevisiae), O13547 (protein) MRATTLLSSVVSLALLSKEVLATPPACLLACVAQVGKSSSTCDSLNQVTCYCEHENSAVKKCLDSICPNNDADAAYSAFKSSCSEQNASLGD	-0.014

Hi, could you look up glycan array binding signal (z-score) for each item in my list?
1. XTP3-B-MRH2 (Homo sapiens), Q96DZ1 (protein) EFLSGSYCFRGGVGWWKYEFCYGKHVHQYHEDKDSGKTSVVVGTWNQEEHIEWAKKNTARAYHLQDDGTQTVRMVSHFYGNGDICDITDKPRQVTVKLKCKESDSPHAVTVYMLEPHSCQYILGVESPVICKILDTA
2. Pp2-A2 (Arabidopsis thaliana), Q07098 (protein) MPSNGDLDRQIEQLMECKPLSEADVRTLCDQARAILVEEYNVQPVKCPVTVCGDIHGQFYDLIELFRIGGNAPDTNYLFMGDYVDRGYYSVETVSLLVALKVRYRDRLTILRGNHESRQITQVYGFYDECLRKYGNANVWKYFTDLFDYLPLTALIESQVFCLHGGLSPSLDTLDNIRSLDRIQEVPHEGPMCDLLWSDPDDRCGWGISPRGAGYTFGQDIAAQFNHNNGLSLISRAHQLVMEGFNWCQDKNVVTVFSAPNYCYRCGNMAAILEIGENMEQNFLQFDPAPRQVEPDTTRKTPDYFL

1. -0.412
2. 0.633
